- assay.text: chemical genetic growth profiling, strain panel (AID 1159580);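 note: tested at 20 µM; growth read once vehicle control cultures reached saturation at 30 °C; 1 = growth at the plate median or of vehicle wells; lower values mean less growth of the strain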
- run.conditions: S. cerevisiae deletion strains, growth OD, locus YOR106W, strain vam3, hits give low values
Out of some 5,500 compounds screened, about 2,000 (36%) were called active. Roughly 18% stayed inconclusive and do not appear here. Some of the results follow.
property.name: normalized growth

[
  {
    "compound": "C=C1C[C@]23C[C@@]1(O)CC[C@H]2[C@@]12C=C[C@H](O)[C@@](C)(C(=O)O1)[C@H]2[C@@H]3C(=O)O",
    "measured": 0.982
  },
  {
    "compound": "C/C=C\\C1=C(C(=O)O)N2C(=O)C(NC(=O)C(N)c3ccc(O)cc3)C2SC1 (stereo unspecified)",
    "measured": 0.997
  },
  {
    "compound": "Cc1cn[nH]c1",
    "measured": 1.03
  },
  {
    "compound": "CCN(CC)CCOCCOC(=O)C1(c2ccccc2)CCCC1",
    "measured": 1.02
  },
  {
    "compound": "COc1ccc2cc(CCC(C)=O)ccc2c1",
    "measured": 1
  },
  {
    "compound": "NC(Cn1ccc(=O)c(O)c1)C(=O)O (stereo unspecified)",
    "measured": 1.02
  },
  {
    "compound": "COC(=O)/C(=C1\\OC(=O)C(c2ccccc2)=C1O)c1ccccc1",
    "measured": 1.01
  },
  {
    "compound": "CC(=O)O[C@@H]1C=C[C@@]2(C)C(C[C@@H](OC(C)=O)[C@@]3(C)C4=CC(=O)O[C@@H](c5ccoc5)[C@]4(C)CCC23)C1(C)C (stereo partly specified)",
    "measured": 0.997
  },
  {
    "compound": "COc1ccc([C@@H]2CC(=O)c3c(O)cc(O[C@@H]4O[C@H](CO[C@H]5O[C@@H](C)[C@H](O)[C@@H](O)[C@H]5O)[C@@H](O)[C@H](O)[C@H]4O)cc3O2)cc1O",
    "measured": 1.02
  },
  {
    "compound": "C[C@H](CCC(=O)O)[C@H]1CCC2C3C(=O)CC4CC(=O)CC[C@]4(C)C3CC(=O)[C@@]21C (stereo partly specified)",
    "measured": 0.924
  },
  {
    "compound": "CC(=O)Oc1ccc(C(c2ccc(OC(C)=O)cc2)c2ccccn2)cc1",
    "measured": 1.05
  },
  {
    "compound": "CC(=O)O[C@@H]1CC2C(C)(C)C(=O)C=C[C@]2(C)C2CC[C@]3(C)C(=CC(=O)O[C@H]3c3ccoc3)[C@@]21C (stereo partly specified)",
    "measured": 1.01
  },
  {
    "compound": "CC(C)CCCC(C)[C@H]1CCC2C3C(=O)C=C4C[C@@H](O)CC[C@]4(C)C3CC[C@@]21C (stereo partly specified)",
    "measured": 0.978
  },
  {
    "compound": "CN[C@@H]1[C@H](O)[C@H](NC)[C@H]2O[C@@]3(O)C(=O)C[C@@H](C)O[C@H]3O[C@@H]2[C@H]1O",
    "measured": 1.02
  },
  {
    "compound": "Oc1c(Cl)cc(Cl)cc1Sc1cc(Cl)cc(Cl)c1O",
    "measured": 0.0687
  },
  {
    "compound": "CC(C)CCCC(C)C1CCC2C3=CC[C@H]4C[C@@H](O)CC[C@]4(C)C3CC[C@@]21C (stereo partly specified)",
    "measured": 0.935
  },
  {
    "compound": "CC(=O)O[C@@H]1CC2C(C)(C)[C@H](O)C=C[C@]2(C)C2CC[C@]3(C)C(=CC(=O)O[C@H]3c3ccoc3)[C@@]21C (stereo partly specified)",
    "measured": 0.99
  },
  {
    "compound": "COc1ccc(C2Sc3ccccc3N(CCN(C)C)C(=O)C2OC(C)=O)cc1 (stereo unspecified)",
    "measured": 0.903
  },
  {
    "compound": "CN(C)C(=O)Oc1cccc([N+](C)(C)C)c1",
    "measured": 0.998
  },
  {
    "compound": "CN(C)CCCN1c2ccccc2Sc2ccc(C(F)(F)F)cc21",
    "measured": 0.561
  },
  {
    "compound": "CNNC",
    "measured": 1.02
  },
  {
    "compound": "CC(=O)Oc1ccc(/C=C/c2cc(OC(C)=O)cc(OC(C)=O)c2)cc1",
    "measured": 0.988
  },
  {
    "compound": "CC(C)CCCC(C)[C@H]1CCC2C3CC=C4CC(=O)CC[C@]4(C)C3CC[C@@]21C (stereo partly specified)",
    "measured": 0.965
  },
  {
    "compound": "CC(=O)c1ccc(O)c(CC=C(C)C)c1",
    "measured": 0.938
  },
  {
    "compound": "CCC(C)C(=O)OC1[C@@H]2CC3=C4CC(=O)O[C@@H](c5ccoc5)[C@]4(C)CCC3[C@@](C)(C2=O)[C@@H](CC(=O)OC)C1(C)C (stereo partly specified)",
    "measured": 1.02
  },
  {
    "compound": "NC(=O)NC(=O)Cc1ccccc1",
    "measured": 0.96
  },
  {
    "compound": "COc1cc(C(C)=O)cc(OC)c1O",
    "measured": 1.07
  },
  {
    "compound": "CC(=O)Oc1cccc(O)c1",
    "measured": 1.02
  },
  {
    "compound": "Nc1ccc(C(=O)O)cc1",
    "measured": 1.04
  },
  {
    "compound": "CC(=O)O[C@H]1CC[C@@]2(C)C(C[C@@H](OC(C)=O)[C@@]3(C)C4=CC(=O)O[C@@H](c5ccoc5)[C@]4(C)CCC23)C1(C)C (stereo partly specified)",
    "measured": 1.03
  },
  {
    "compound": "CC(CCC(=O)O)[C@H]1CCC2C3CC[C@@H]4C[C@H](O)CC[C@]4(C)C3C=C[C@@]21C (stereo partly specified)",
    "measured": 0.842
  },
  {
    "compound": "CCOC(=O)[C@H](CCc1ccccc1)N[C@@H](C)C(=O)N1CCC[C@H]1C(=O)O",
    "measured": 0.977
  },
  {
    "compound": "N=C(N)N",
    "measured": 1.01
  },
  {
    "compound": "O=P1(NCCCl)OCCCN1CCCl (stereo unspecified)",
    "measured": 0.982
  },
  {
    "compound": "CCN(CC)CCOC(=O)C1(C2CCCCC2)CCCCC1",
    "measured": 1
  },
  {
    "compound": "CC(CCC(=O)O)[C@H]1CCC2C3C(=O)C[C@@H]4CC(=O)CC[C@]4(C)C3CC(=O)[C@@]21C (stereo partly specified)",
    "measured": 0.974
  },
  {
    "compound": "CC(=O)OCC(=O)[C@@]1(O)[C@H](C)CC2C3CCC4=CC(=O)C=C[C@]4(C)[C@@]3(F)[C@@H](O)C[C@@]21C (stereo partly specified)",
    "measured": 0.927
  },
  {
    "compound": "O=C(CC(=O)c1ccccc1)c1ccccc1",
    "measured": 0.0633
  },
  {
    "compound": "O=C1NC(O)=NC1(c1ccccc1)c1ccccc1",
    "measured": 1.02
  },
  {
    "compound": "CC(=O)Nc1ccc(S(=O)(=O)Nc2onc(C)c2C)cc1",
    "measured": 0.996
  },
  {
    "compound": "COC(=O)c1c(OC)cc2c(c1C)Oc1c(Cl)c(OC(C)=O)c(Cl)c(C)c1C(=O)O2",
    "measured": 1.03
  }
]
